# Protocol Text: Pharmacokinetics after intravenous and oral administration in rats
# Assay type: in vivo
# Experimental Conditions: rat, plasma, iv dosing, 1 mg/kg
Readout Kind: half-life (h)

Known half-life results, listed for orientation:
# Query Smiles, half-life / h
measured = [
    ("Cc1c(C(=O)Nc2ccc(Oc3ccnc(NC(=O)N4CCOCC4)c3)cn2)c(=O)n(-c2ccccc2)n1C", 1.23),
    ("Cc1c(C(=O)Nc2ccc(Oc3ccnc(N)c3Cl)cc2)c(=O)n(-c2ccccc2)n1C", 4.1),
    ("Cc1c(C(=O)Nc2cc(F)c(Oc3ccnc(NC(=O)N4CCOCC4)c3)cc2F)c(=O)n(-c2ccccc2)n1C", 4.6),
]

I. CC(=O)Nc1cc(Oc2cc(F)c(NC(=O)c3c(C)n(C)n(-c4ccccc4)c3=O)cc2F)ccn1
II. Cc1c(C(=O)Nc2ccc(Oc3ccnc(N)c3)cc2)c(=O)n(-c2ccccc2)n1C
III. Cc1c(C(=O)Nc2ccc(Oc3ccnc(N)c3Cl)c(F)c2)c(=O)n(-c2ccccc2)n1C
Query: Write the entries in order, lowest recorded half-life first. Please list each label once, in the requested order.
Response: II, III, I
(II: 1.13 h, III: 2.69 h, I: 4.76 h)

---

# Protocol Text: Pharmacokinetics after intravenous and oral administration in rats
# Assay type: in vivo
# Experimental Conditions: iv dosing, 1 mg/kg
# Experimental: The compounds disclosed herein are assessed in pharmacokinetic studies in mice, rats, dogs or monkeys. The compounds are administered as a water solution, 2% HPMC+1% TWEEN®80 in water solution, 5% DMSO+5% solutol in saline, 4% MC suspension or capsule. For the intravenous administration, the animals are generally given at 1 or 2 mg/kg dose. […] The plasma solutions are collected, stored at −20° C. or −70° C. until analyzed by LC/MS/MS as described above.
Readout Kind: clearance (CL) after iv dosing (L/h/kg)

A. CC(=O)Nc1cc(Oc2cc(F)c(NC(=O)c3c(C)n(C)n(-c4ccccc4)c3=O)cc2F)ccn1
B. Cc1c(C(=O)Nc2ccc(Oc3ccnc(N)c3)cc2)c(=O)n(-c2ccccc2)n1C
C. Cc1c(C(=O)Nc2cc(F)c(Oc3ccnc(NC(=O)N4CCOCC4)c3)cc2F)c(=O)n(-c2ccccc2)n1C
D. Cc1c(C(=O)Nc2ccc(Oc3ccnc(NC(=O)N4CCOCC4)c3)cn2)c(=O)n(-c2ccccc2)n1C
Query: Order the records so the highest clearance (CL) after iv dosing appears first and the lowest last. Show the ranking through the labels, in the order asked for.
Response: B, D, C, A
(B: 1.42 L/h/kg, D: 0.24 L/h/kg, C: 0.11 L/h/kg, A: 0.04 L/h/kg)
